Here, each record is paired with measured IC50 data.
Molecular target: Gag-Pol polyprotein [1148-1435] (Human immunodeficiency virus 1, UniProt P04585)

>  <STRUCTURE SMILES>
CC[C@H](CO)n1cc(C(=O)O)c(=O)c2cc(Cc3cccc(Cl)c3F)ccc21

>  <UNIT STRING>
µM

>  <QUALIFIER OPERATOR>
=

>  <IC50>
0.042

$$$$
>  <STRUCTURE SMILES>
COc1c2c(c(O)c3ncccc13)C(=O)N(Cc1ccc(F)cc1)C2

>  <UNIT STRING>
µM

>  <QUALIFIER OPERATOR>
=

>  <IC50>
0.06

$$$$
>  <STRUCTURE SMILES>
COc1c2c(c(OC)c3ncccc13)C(=O)N(Cc1ccc(F)cc1)C2

>  <UNIT STRING>
µM

>  <QUALIFIER OPERATOR>
>

>  <IC50>
1000

$$$$
>  <STRUCTURE SMILES>
O=C(O)C(=O)CC(=O)c1cccc(Cc2ccccc2)c1

>  <UNIT STRING>
µM

>  <QUALIFIER OPERATOR>
=

>  <IC50>
0.026

$$$$
>  <STRUCTURE SMILES>
O=C(NCc1ccc(F)cc1)c1nc(N2CCCCS2(=O)=O)c2cccnc2c1O

>  <UNIT STRING>
µM

>  <QUALIFIER OPERATOR>
=

>  <IC50>
0.044

$$$$
>  <STRUCTURE SMILES>
COc1c2c(cc3ncccc13)C(=O)N(Cc1ccc(F)cc1)C2

>  <UNIT STRING>
µM

>  <QUALIFIER OPERATOR>
=

>  <IC50>
24

$$$$
